# TARGET DESC: human PD-L1 (cell surface) (human, UniProt Q9NZQ7)
# Sequence (Q9NZQ7 19-238): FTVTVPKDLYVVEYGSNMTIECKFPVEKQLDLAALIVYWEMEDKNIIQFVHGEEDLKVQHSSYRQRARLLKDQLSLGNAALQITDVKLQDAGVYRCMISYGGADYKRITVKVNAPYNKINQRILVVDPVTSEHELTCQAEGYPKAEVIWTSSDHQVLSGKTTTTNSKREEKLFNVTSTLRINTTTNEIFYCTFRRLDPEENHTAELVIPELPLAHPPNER
# PROTOCOL TEXT: FACS, NCI-H441 cells
Mark each entry T if its EC50 sits below 60 pM, and F for all others.

Consider the worked cases shown below.
4D2-hv2-NT (antibody, V domains shown) VH: QVQLVESGGGLVKPGGSLRLSCAASGFSASDVVMAWYRQAPGKQREFVSNLGASSTTRYADSVKGRFTISRDNAKNSLYLQMNSLRAEDTAVYYCNALVWTGSSYNNWGQGTQVTVSS
F
4E2-hv2-NT (antibody, V domains shown) VH: EVQLVESGGGLVKPGGSLRLSCAASGFSAGDVVMAWYRQAPGKQREFVSNIAASSTTRYADSVKGRFTISRDNAKNSLYLQMNSLRAEDTAVYYCNALVWTGSSYNNWGQGTQVTVSS
T
4E2-hv3-NT (antibody, V domains shown) VH: EVQLVESGGGLVKPGGSLRLSCAASGFSAGDVVMAWYRQAPGKQREFVSNIAASSTTYYADSVKGRFTISRDNAKNSLYLQMNSLRAEDTAVYYCNALVWTGSSYNNWGQGTQVTVSS
T

Prompt: Find out if reported EC50 for 1F4-hv7-NT (antibody, V domains shown) VH: QVQLVESGGGLVKPGGSLRLSCAASGFSASDVVMAWYRQAPGKQREFVANIAASSTTRYADSVKGRFTISRDNAKNSLYLQMNSLRAEDTAVYYCNALVWTGSSYNNWGQGTQVTVSS is less than 60 pM
Response: T

Prompt: Find out if reported EC50 for 4D2-hv1-NT (antibody, V domains shown) VH: QVQLVESGGGLVKPGGSLRLSCAASGFSASDVVMAWYRQAPGKQREFVANLGASSTTRYADSVKGRFTISRDNAKNSLYLQMNSLRAEDTAVYYCNALVWTGSSYNNWGQGTQVTVSS is less than 60 pM
Response: F

Prompt: Strictly below 60 pM in EC50? 4D2-hv4-NT (antibody, V domains shown) VH: QVQLVESGGGLVKPGGSLRLSCAASGFSASDVVMAWYRQAPGKQREFVSNLGASSTTNYADSVKGRFTISRDNAKNSLYLQMNSLRAEDTAVYYCNALVWTGSSYNNWGQGTQVTVSS
Response: F

Entry source: patent US20260365734
